- ASSAY SYSTEM: Prolyl endopeptidase-like (Mus musculus) (UniProt Q8C167)
- Sequence (Q8C167 whole entry, looked up): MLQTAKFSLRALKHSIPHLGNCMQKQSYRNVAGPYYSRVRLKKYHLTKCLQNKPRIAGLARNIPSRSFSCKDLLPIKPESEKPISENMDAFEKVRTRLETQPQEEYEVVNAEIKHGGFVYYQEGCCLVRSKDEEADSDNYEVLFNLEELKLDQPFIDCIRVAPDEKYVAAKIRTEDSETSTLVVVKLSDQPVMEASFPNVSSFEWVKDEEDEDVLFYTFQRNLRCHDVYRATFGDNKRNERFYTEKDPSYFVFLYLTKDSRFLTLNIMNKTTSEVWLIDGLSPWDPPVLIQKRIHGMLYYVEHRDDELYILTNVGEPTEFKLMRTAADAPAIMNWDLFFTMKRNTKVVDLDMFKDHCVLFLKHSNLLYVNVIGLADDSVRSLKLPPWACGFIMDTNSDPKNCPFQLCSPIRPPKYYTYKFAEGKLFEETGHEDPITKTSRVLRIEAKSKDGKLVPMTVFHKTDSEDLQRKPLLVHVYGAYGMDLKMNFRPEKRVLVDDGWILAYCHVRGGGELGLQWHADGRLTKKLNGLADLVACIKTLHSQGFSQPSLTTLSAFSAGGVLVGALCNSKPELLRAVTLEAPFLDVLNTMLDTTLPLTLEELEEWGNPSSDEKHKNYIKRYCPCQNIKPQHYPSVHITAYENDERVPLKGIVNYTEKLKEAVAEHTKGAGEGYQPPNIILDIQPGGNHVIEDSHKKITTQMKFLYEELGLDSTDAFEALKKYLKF
- METHOD DESCRIPTION: purified PREPL inhibitors, PREPL inhibitor project, biochemical, gel-based competitive ABPP, fluorescence, HTS hits (AID 624481)
- PROTOCOL CONDITIONS: at 20 µM, active compounds read high
inhibition listing for selected compounds.

COMPOUND	ASSAY SYSTEM	inhibition [%]
Cc1cccn2c(=O)c3cc(C(=O)NCCc4ccccc4)c(=N)n(CCCn4ccnc4)c3nc12	Prolyl endopeptidase-like (Mus musculus) (UniProt Q8C167)	-33
CN(C)S(=O)(=O)c1cccc(-c2csc(=Nc3ccccc3)n2CCCN2CCOCC2)c1	Prolyl endopeptidase-like (Mus musculus) (UniProt Q8C167)	-41
COc1ccc(C(=O)c2coc3ccc(O)c(CN4CCCCC4)c23)cc1	Prolyl endopeptidase-like (Mus musculus) (UniProt Q8C167)	-53
Clc1ccc(-c2csc(=Nc3cccnc3)n2CCCn2ccnc2)cc1Cl	Prolyl endopeptidase-like (Mus musculus) (UniProt Q8C167)	-41
COc1ccc(NCc2nn(CC(=O)c3ccc(Br)cc3)c3[n+]2CCCCC3)cc1	Prolyl endopeptidase-like (Mus musculus) (UniProt Q8C167)	-48
O=c1[nH]c2ccc(NCc3ccccc3OCc3ccc(Cl)cc3)cc2[nH]1	Prolyl endopeptidase-like (Mus musculus) (UniProt Q8C167)	-43
CN(CC(=O)Nc1ccc(Cl)cc1)C(=O)c1cccc(S(=O)(=O)N2CCN(Cc3ccccc3)CC2)c1	Prolyl endopeptidase-like (Mus musculus) (UniProt Q8C167)	1
Cc1noc(C)c1S(=O)(=O)Nc1ccc2c(c1)C(=O)N([C@H](C)CO)C[C@H](C)[C@@H](CN(C)C(=O)Nc1ccc(C(F)(F)F)cc1)O2	Prolyl endopeptidase-like (Mus musculus) (UniProt Q8C167)	-1
C[C@H](CO)N1C[C@H](C)[C@H](CN(C)Cc2ccccc2)Oc2c(NC(=O)Nc3ccc(F)cc3)cccc2C1=O	Prolyl endopeptidase-like (Mus musculus) (UniProt Q8C167)	-56
CCOc1ccc(Nc2nc(NCC3CCCO3)c3ccccc3n2)cc1 (configuration not stated)	Prolyl endopeptidase-like (Mus musculus) (UniProt Q8C167)	12
CCC[C@@H](CN1CCC[C@H]1CN1C(N)=NC[C@H]1C(C)C)N1C[C@@H]([C@H](C)CC)N(CCCC2CCCC2)C1=N	Prolyl endopeptidase-like (Mus musculus) (UniProt Q8C167)	-68
O=C(C1=C[C@@H](c2ccccc2)C[C@@H](OCc2ccc(CO)cc2)O1)N1CCN(Cc2ccc3c(c2)OCO3)CC1	Prolyl endopeptidase-like (Mus musculus) (UniProt Q8C167)	-73
c1ccc(N2CCN(c3nc(-c4ccccn4)nc4ccccc34)CC2)cc1	Prolyl endopeptidase-like (Mus musculus) (UniProt Q8C167)	-283
CCC(CN(C)C)Oc1cc(NCc2ccccc2)c2ncn(C(C)C)c2c1 (configuration not stated)	Prolyl endopeptidase-like (Mus musculus) (UniProt Q8C167)	-65
C#CCOCCOCCOCCNc1nc(N2CCN(C(=O)C(Cc3cc4ccccc4[nH]3)n3cc(C(N)C(C)CC)nn3)CC2)nc(N2CCN(C(=O)C(Cc3cc4ccccc4[nH]3)n3cc(C(N)C(C)CC)nn3)CC2)n1 (configuration not stated)	Prolyl endopeptidase-like (Mus musculus) (UniProt Q8C167)	-161
C#CCOCCOCCOCCNc1nc(N2CCN(C(=O)[C@H](CCCCN)n3cc([C@@H](N)C(C)CC)nn3)CC2)nc(N2CCN(C(=O)[C@H](Cc3cc4ccccc4[nH]3)n3cc([C@@H](N)CC(C)C)nn3)CC2)n1 (some centres not stated)	Prolyl endopeptidase-like (Mus musculus) (UniProt Q8C167)	-8
COc1ccc(N2CCN(C(=O)c3cn(C4CCCC4)c(=O)c4c3c3ccccc3n4C)CC2)cc1	Prolyl endopeptidase-like (Mus musculus) (UniProt Q8C167)	92
